Molecular target: Peroxisome proliferator-activated receptor alpha (Homo sapiens) (UniProt Q07869)
Sequence (whole entry): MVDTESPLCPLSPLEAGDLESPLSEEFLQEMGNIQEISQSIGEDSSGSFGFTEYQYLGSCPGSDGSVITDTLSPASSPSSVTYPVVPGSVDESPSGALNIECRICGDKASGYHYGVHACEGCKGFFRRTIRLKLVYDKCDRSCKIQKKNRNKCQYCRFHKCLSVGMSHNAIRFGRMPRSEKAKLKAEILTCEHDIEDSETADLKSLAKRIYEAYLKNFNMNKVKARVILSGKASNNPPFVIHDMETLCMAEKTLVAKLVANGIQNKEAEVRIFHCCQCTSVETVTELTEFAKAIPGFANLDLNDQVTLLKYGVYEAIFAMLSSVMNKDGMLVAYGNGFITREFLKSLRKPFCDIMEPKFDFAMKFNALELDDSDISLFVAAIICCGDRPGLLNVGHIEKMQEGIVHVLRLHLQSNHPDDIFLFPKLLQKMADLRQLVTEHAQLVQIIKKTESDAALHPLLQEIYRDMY
Experiment: Agonist activity at human PPARalpha expressed in HEK293 after 8 hrs by luciferase reporter gene assay relative to fenofibric acid
Assay type: functional, cell-based
Observable: Emax (%)

| Molecule | Emax, % |
| --- | --- |
| CCC(Cc1ccc(CCc2ccc(N3C(=O)c4ccccc4C3=O)cc2)cc1)C(=O)O (centres undefined) | 72 |
| CCOc1cc(N2C(=O)c3ccccc3C2=O)ccc1CCc1ccc(C[C@H](CC)C(=O)O)cc1 | 69 |
| CCCOc1cc(N2C(=O)c3ccccc3C2=O)ccc1CCc1ccc(CC(CC)C(=O)O)cc1 (racemic) | 70 |
| CCCOc1cc(N2C(=O)c3ccccc3C2=O)ccc1CCc1ccc(C[C@@H](CC)C(=O)O)cc1 | 70 |

* * *

target: Peroxisome proliferator-activated receptor delta (Homo sapiens) (UniProt Q03181); test: Agonist activity at human PPARdelta expressed in HEK293 after 8 hrs by luciferase reporter gene assay relative to GW501516; type: functional, cell-based
Sequence (Q03181 whole entry): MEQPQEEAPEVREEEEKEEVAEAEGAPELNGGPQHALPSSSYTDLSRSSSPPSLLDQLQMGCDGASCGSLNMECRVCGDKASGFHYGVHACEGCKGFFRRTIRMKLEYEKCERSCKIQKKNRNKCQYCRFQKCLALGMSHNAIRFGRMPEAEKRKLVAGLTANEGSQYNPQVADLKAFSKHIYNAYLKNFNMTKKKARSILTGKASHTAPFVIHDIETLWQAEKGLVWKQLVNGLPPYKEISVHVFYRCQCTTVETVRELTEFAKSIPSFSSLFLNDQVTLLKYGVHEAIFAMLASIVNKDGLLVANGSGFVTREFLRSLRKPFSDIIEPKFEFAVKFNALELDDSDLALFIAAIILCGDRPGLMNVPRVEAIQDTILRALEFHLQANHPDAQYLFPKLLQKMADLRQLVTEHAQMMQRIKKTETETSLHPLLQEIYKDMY
Observable: Emax (%)

# example entries with known answers
| Compound | Emax / % |
| --- | --- |
| O=C(O)CCCOc1ccc(CCc2ccc(N3C(=O)c4ccccc4C3=O)cc2)cc1 | 1 |
| O=C(O)CCCCc1ccc(CCc2ccc(N3C(=O)c4ccccc4C3=O)cc2)cc1 | 4 |
| CCC(Cc1ccc(CCc2ccc(N3C(=O)c4ccccc4C3=O)cc2OC)cc1)C(=O)O (racemic) | 24 |
| CCOc1cc(N2C(=O)c3ccccc3C2=O)ccc1CCc1ccc(C[C@@H](CC)C(=O)O)cc1 | 12 |
| CCOc1cc(N2C(=O)c3ccccc3C2=O)ccc1CCc1ccc(CC(CC)C(=O)O)cc1 (racemic) | 33 |
| O=C(O)COc1ccc(CCc2ccc(N3C(=O)c4ccccc4C3=O)cc2)cc1 | 10 |

(A) CCCCOc1cc(N2C(=O)c3ccccc3C2=O)ccc1CCc1ccc(CC(CC)C(=O)O)cc1 (stereo not drawn)
(B) CCC(Cc1ccc(CCc2ccc(N3C(=O)c4ccccc4C3=O)cc2O)cc1)C(=O)O (stereo not drawn)
Incoming: // returns A or B , whichever has the lower Emax Please identify the chosen entry by its label.
Outgoing: B

* * *

biological target: Peroxisome proliferator-activated receptor alpha (Homo sapiens); test: Agonist activity at human PPARalpha expressed in HEK293 after 8 hrs by luciferase reporter gene assay; format: functional, cell-based
pEC50: −log10 of the molar value.
Observable: pEC50

| Molecule | Tested system | Observable | Reading |
| --- | --- | --- | --- |
| CCOc1cc(N2C(=O)c3ccccc3C2=O)ccc1CCc1ccc(CC(CC)C(=O)O)cc1 (racemic) | Peroxisome proliferator-activated receptor alpha (Homo sapiens) | pEC50 | 5.85 |
| CCOc1cc(N2C(=O)c3ccccc3C2=O)ccc1CCc1ccc(C[C@H](CC)C(=O)O)cc1 | Peroxisome proliferator-activated receptor alpha (Homo sapiens) | pEC50 | 5.77 |
| CCCOc1cc(N2C(=O)c3ccccc3C2=O)ccc1CCc1ccc(C[C@H](CC)C(=O)O)cc1 | Peroxisome proliferator-activated receptor alpha (Homo sapiens) | pEC50 | 5.77 |

(a) CCC(Cc1ccc(CCc2ccc(N3C(=O)c4ccccc4C3=O)cc2OC)cc1)C(=O)O (racemic)
(b) CCCOc1cc(N2C(=O)c3ccccc3C2=O)ccc1CCc1ccc(CC(CC)C(=O)O)cc1 (racemic)
Incoming: Given the two records a and b , choose the one whose pEC50 value is lower. Output the label that corresponds to your choice.
Outgoing: a
